Reference for the values: ChEMBL document CHEMBL1201862

# System: K562
# assay-comment: NCI tumour cell line growth inhibition, 48 h
Calls of active or inactive are those of the source. Cut-off read from the data, not from the text of the source: active = GI50 up to about 1.1 µM and inactive = higher.
parameter: GI50

> print(dat)
                                 compound       recorded.value
1  COc1ccccc1-n1cnc2c1=NC(C)(C)NC=2C(N)=O  > 100 µM (inactive)

**Q:** Can you look up the measured GI50 of O=C1C=CC2(C=C1)O[C@H](CCc1ccccc1)[C@@H](CCc1ccccc1)O2 for me?
**A:** > 100 µM (inactive)

**Q:** // GI50 lookup, key: COc1ccc2cc3[n+](cc2c1OC)CCc1cc2c(cc1-3)OCO2 [BERBERINE CHLORIDE]
**A:** 16.6 µM (inactive)

**Q:** // returns reported GI50 for input C[C@]12CCC(=O)C=C1CC[C@@H]1C2CC[C@@]2(C)C1CC[C@@H]2OC(=O)C12OC1CCC2=O (stereo not given in full)
**A:** 24.4 µM (inactive)

**Q:** // query GI50 value for entry C=CCOC(=O)CC[N+]1=CCC(c2ccccc2)(c2ccccc2)O1
**A:** > 100 µM (inactive)

----------
# System: RXF 393
# assay-comment: NCI tumour cell line growth inhibition, 48 h
Calls of active or inactive are those of the source. Rule as the data show it: active = GI50 up to about 1.1 µM and inactive = higher.
parameter: GI50

Some compounds with known GI50 results, for comparison:
> print(dat)
                                   compound  parameter       recorded.value
1  C[C@]12CC[C@@H]3c4ccc(OP(=O)(O)O)cc4CC[C@H]3[C@@H]1CCC2=O       GI50   56.9 µM (inactive)
2          O=S(O)c1cc(Cl)cc(Cl)c1OCc1ccccc1       GI50  > 100 µM (inactive)

**Q:** Form field: GI50 recorded for O=C1C=CC2(C=C1)O[C@H](CCc1ccccc1)[C@@H](CCc1ccccc1)O2 with RXF 393 (enter value)
**A:** 24.3 µM (inactive)

**Q:** Which measured GI50 belongs to CCc1nc(N)nc(N)c1-c1ccc(N2CCNCC2)cc1 , tested on RXF 393?
**A:** 64.9 µM (inactive)

**Q:** Tell me reported GI50 for CC1CNC(c2ccc(COc3ccc(C4=NC(C)CN4)cc3)cc2)=N1 (stereo unspecified) , tested with RXF 393.
**A:** 58.6 µM (inactive)

**Q:** Test system RXF 393; read-out GI50; what value for NCCCCNCCCN1CC1 ?
**A:** 0.123 µM (active)

**Q:** Request - read-out GI50 | tested on RXF 393 | compound CN(C)CCCN1c2ccccc2Sc2ccc3ccccc3c21
**A:** 1.65 µM (inactive)

**Q:** Recorded GI50 for CC(=O)c1c(C)[n+]([O-])c2cc(Cl)c(Cl)cc2[n+]1[O-] with RXF 393, please?
**A:** > 100 µM (inactive)

**Q:** Lab request: please report GI50 under test system RXF 393 for COC(=O)[C@H]1[C@H](C(=O)OC)[C@@H](C)c2c(ccc3c2[nH]c2ccccc23)[C@@H]1C
**A:** 14.1 µM (inactive)

**Q:** Return GI50 measured with RXF 393 given this compound: CC1=N/C(=C\c2c(O)ccc3ccccc23)C(=O)O1
**A:** > 100 µM (inactive)

**Q:** Recall the recorded GI50 for COc1cc2cc3c4c(cc(OC)c(OC)c4c2cc1OC)CCN3 with RXF 393 and state it.
**A:** 25.1 µM (inactive)
